# protocol-details: Absorption and fluorescence emission spectra in DMF
# Type: physicochemical
# condition-details: in DMF
metric: λF, fluorescence emission maximum (nm)
Numeric answer only, unit nm assumed.

Consider the reported λF, fluorescence emission maximum for these compounds:
[
  {
    "compound": "CC[N+](CC)(CC)CCSc1cc2c(cc1SCC[N+](CC)(CC)CC)C1=Nc3c4cc(SCC[N+](CC)(CC)CC)c(SCC[N+](CC)(CC)CC)cc4c4[n]3[Zn][n]3c(c5cc(SCC[N+](CC)(CC)CC)c(SCC[N+](CC)(CC)CC)cc5c3=NC3=NC(=N4)c4cc(SCC[N+](CC)(CC)CC)c(SCC[N+](CC)(CC)CC)cc43)=NC2=N1.[I-].[I-].[I-].[I-].[I-].[I-].[I-].[I-] [C8Zn]",
    "recorded-measurement": 714
  },
  {
    "compound": "Cc1cc(Cn2cc[n+](C)c2)c(Oc2c3c(c(C)c(C)[n+]2C)C2=Nc4c5c(Oc6c(Cn7cc[n+](C)c7)cc(C)cc6Cn6cc[n+](C)c6)[n+](C)c(C)c(C)c5c5[n]4[Zn][n]4c(c6c(C)c(C)[n+](C)c(Oc7c(Cn8cc[n+](C)c8)cc(C)cc7Cn7cc[n+](C)c7)c6c4=NC4=NC(=N5)c5c4c(C)c(C)[n+](C)c5Oc4c(Cn5cc[n+](C)c5)cc(C)cc4Cn4cc[n+](C)c4)=NC3=N2)c(Cn2cc[n+](C)c2)c1.[I-].[I-].[I-].[I-].[I-].[I-].[I-].[I-].[I-].[I-].[I-].[I-] [C11Zn]",
    "recorded-measurement": 726
  }
]

Let us examine a further case.
Exercise: Return reported λF, fluorescence emission maximum; argument: O=S(=O)([O-])c1ccc(Oc2ccc3c(c2)C2=Cc4c5ccc(Oc6ccc(S(=O)(=O)[O-])c7cccnc67)cc5c5[n]4[Zn][n]4c(c6ccc(Oc7ccc(S(=O)(=O)[O-])c8cccnc78)cc6c4=CC3=N2)=CC2=NC(=C5)c3ccc(Oc4ccc(S(=O)(=O)[O-])c5cccnc45)cc32)c2ncccc12.[Na+].[Na+].[Na+].[Na+] [A6Zn]
Key: 692
